TESTED TARGET: human PD-1 / PD-L1-Ig binding on Jurkat cell line over-expressing human PD-1 (Jurkat-PD-1) (Homo sapiens, UniProt Q15116)
Construct: expressed in transfected cells; host or cells: Jurkat
Sequence (Q15116 25-288): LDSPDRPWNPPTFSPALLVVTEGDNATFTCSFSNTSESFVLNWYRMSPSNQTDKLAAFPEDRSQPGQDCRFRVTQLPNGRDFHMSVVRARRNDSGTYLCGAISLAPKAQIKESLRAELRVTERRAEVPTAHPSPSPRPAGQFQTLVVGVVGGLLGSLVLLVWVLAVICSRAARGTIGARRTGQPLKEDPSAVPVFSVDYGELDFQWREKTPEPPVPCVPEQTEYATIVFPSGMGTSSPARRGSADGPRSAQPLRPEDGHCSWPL
MEASUREMENT PROTOCOL: Jurkat-PD-1 Cell Binding High-Content Screening Assay (CBA)
Assay type: cell-based
ASSAY SETUP: Jurkat-PD-1 cells, PE-labeled PD-L1-Ig 20 nM final; read-out: Jurkat HPD1_PDL1 IC50
pIC50: −log10 of the molar value. Where a SMILES comes first, the peptide text is derived from it. Bridges are numbered along the chain shown (N, C = ends). [ ]: non-standard residue; d: D form. Bip = N[C@@H](Cc1ccc(-c2ccccc2)cc1)C(=O)O; Ahp(2) = CCCCC[C@H](N)C(=O)O; Dab = NCC[C@H](N)C(=O)O
EXPERIMENTAL READOUT: pIC50

[
  {
    "COMPOUND": "CCCCC[C@@H]1NC(=O)[C@H](C(C)C)NC(=O)[C@H](Cc2ccccc2)NC(=O)[C@H](CC(=O)O)NC(=O)[C@H](CCCNC(=N)N)NC(=O)[C@H](Cc2ccc(-c3ccccc3)cc2)NC(=O)[C@H](C(C)C)NC(=O)[C@H](Cc2c[nH]c3ccccc23)NC(=O)[C@H](CC(=O)O)NC(=O)[C@H](Cc2ccc(O)cc2)NC(=O)[C@H](Cc2ccccc2)NC(=O)CSC[C@@H](C(=O)NCC(N)=O)NC(=O)[C@H](CO)NC(=O)[C@H](C(C)C)NC1=O [Compound 1003] ({CH2CO}-FYDWV[Bip]RDFV[Ahp(2)]VSCG-NH2; thioether N-14)",
    "EXPERIMENTAL READOUT": "pIC50",
    "READING": 6.21
  },
  {
    "COMPOUND": "Cc1cccc(C[C@@H]2NC(=O)[C@H](CC(=O)O)NC(=O)[C@H](Cc3ccc(OCC(=O)O)cc3)NC(=O)[C@H](Cc3ccncc3)NC(=O)CSC[C@@H](C(=O)N[C@@H](C)C(N)=O)NC(=O)[C@H]([C@@H](C)O)NC(=O)[C@H](C(C)C)NC(=O)[C@H](CC3CCCCC3)NC(=O)[C@H](CCN)NC(=O)[C@@H](CC(C)C)NC(=O)[C@H](CCCN)NC(=O)[C@H](CCCNC(N)=O)NC(=O)[C@H](Cc3ccc(-c4ccccc4)cc3)NC(=O)[C@H](C(C)C)NC2=O)c1 [Compound 1196]",
    "EXPERIMENTAL READOUT": "pIC50",
    "READING": 8.09
  },
  {
    "COMPOUND": "CC(C)C[C@@H]1NC(=O)[C@H](CCCNC(=N)N)NC(=O)[C@@H](CC(C)C)NC(=O)[C@H](C)NC(=O)[C@H](CCCNC(=N)N)NC(=O)[C@H](Cc2ccc(-c3ccccc3)cc2)NC(=O)[C@H](C(C)C)NC(=O)[C@H](Cc2c[nH]c3ccccc23)NC(=O)[C@H](CC(=O)O)NC(=O)[C@H](Cc2ccc(O)cc2)NC(=O)[C@H](CC(N)=O)NC(=O)CSC[C@@H](C(=O)N[C@@H](C)C(N)=O)NC(=O)[C@H]([C@@H](C)O)NC(=O)[C@H](C(C)C)NC1=O [Compound 1006] ({CH2CO}-NYDWV[Bip]RA[dL]RLVTCA-NH2; thioether N-14)",
    "EXPERIMENTAL READOUT": "pIC50",
    "READING": 7.01
  },
  {
    "COMPOUND": "CCCC[C@@H]1NC(=O)[C@H](Cc2ccc(-c3ccccc3)cc2)NC(=O)[C@H](C(C)C)NC(=O)[C@H](Cc2cccc(C)c2)NC(=O)[C@H](CC(=O)O)NC(=O)[C@H](Cc2ccc(C(=O)O)cc2)NC(=O)[C@H](Cc2ccncc2)NC(=O)CSC[C@@H](C(=O)N[C@@H](C)C(N)=O)NC(=O)[C@H]([C@@H](C)O)NC(=O)[C@H](C(C)C)NC(=O)[C@H](CC2CCCCC2)NC(=O)[C@H](CCN)NC(=O)[C@@H](CC(C)C)NC(=O)[C@H](CCCN)NC1=O [Compound 1613]",
    "EXPERIMENTAL READOUT": "pIC50",
    "READING": 7.68
  },
  {
    "COMPOUND": "CC(C)C[C@@H]1NC(=O)[C@H](CCN)NC(=O)[C@@H](CC(C)C)NC(=O)[C@H](CCCCN)NC(=O)[C@H](C(C)C)NC(=O)[C@H](Cc2ccc(-c3ccccc3)cc2)NC(=O)[C@H](C(C)C)NC(=O)[C@H](Cc2c[nH]c3ccccc23)NC(=O)[C@H](CC(N)=O)NC(=O)[C@H](Cc2ccc(O)cc2)NC(=O)[C@H](CC(N)=O)NC(=O)CSC[C@@H](C(=O)NCC(N)=O)NC(=O)[C@H](CO)NC(=O)[C@H](C(C)C)NC1=O [Compound 1082] ({CH2CO}-NYNWV[Bip]VK[dL][Dab]LVSCG-NH2; thioether N-14)",
    "EXPERIMENTAL READOUT": "pIC50",
    "READING": 7.38
  },
  {
    "COMPOUND": "CC[C@H](C)[C@@H]1NC(=O)[C@H](Cc2ccc(-c3ccccc3)cc2)NC(=O)[C@H](C(C)C)NC(=O)[C@H](Cc2cccc(OC)c2)NC(=O)[C@H](CC(=O)O)NC(=O)[C@H](Cc2ccncc2)NC(=O)[C@H](CN)NC(=O)CSC[C@@H](C(=O)N[C@@H](C)C(N)=O)NC(=O)[C@H]([C@@H](C)O)NC(=O)[C@H](C(C)C)NC(=O)[C@H](CC2CCCCC2)NC(=O)[C@H](CCN)NC(=O)[C@@H](CC(C)C)NC(=O)[C@H](CCCN)NC1=O [Compound 1563]",
    "EXPERIMENTAL READOUT": "pIC50",
    "READING": 7.97
  },
  {
    "COMPOUND": "Cc1cccc(C[C@@H]2NC(=O)[C@H](CC(=O)O)NC(=O)[C@H](Cc3ccc(C(=O)O)cc3)NC(=O)[C@H](Cc3ccncc3)NC(=O)CSC[C@@H](C(=O)N[C@@H](C)C(N)=O)NC(=O)[C@H]([C@@H](C)O)NC(=O)[C@H](C(C)C)NC(=O)[C@H](CC3CCCCC3)NC(=O)[C@H](CCN)NC(=O)[C@@H](CC(C)C)NC(=O)[C@H](CCCN)NC(=O)[C@H](CC3CCCCC3)NC(=O)[C@H](Cc3ccc(-c4ccccc4)cc3)NC(=O)[C@H](C(C)C)NC2=O)c1 [Compound 1621]",
    "EXPERIMENTAL READOUT": "pIC50",
    "READING": 7.44
  },
  {
    "COMPOUND": "CCC(C)[C@@H]1NC(=O)[C@H](Cc2ccc(-c3ccccc3)cc2)NC(=O)[C@H](C(C)C)NC(=O)[C@H](Cc2cccc(C)c2)NC(=O)[C@H](CC(=O)O)NC(=O)[C@H](Cc2ccc(C(=O)O)cc2)NC(=O)[C@H](Cc2ccncc2)NC(=O)CSC[C@@H](C(=O)N[C@@H](CCN)C(N)=O)NC(=O)[C@H]([C@@H](C)O)NC(=O)[C@H](C(C)C)NC(=O)[C@H](CC2CCCCC2)NC(=O)[C@H](CCN)NC(=O)[C@@H](CC(C)C)NC(=O)[C@H](CCCN)NC1=O (some centres unmarked) [Compound 2301]",
    "EXPERIMENTAL READOUT": "pIC50",
    "READING": 7.83
  }
]
